The reported measurements were obtained from patent US11040035B2.

Target Of Assay: AHR (Homo sapiens)
Sequence (P35869 11-848): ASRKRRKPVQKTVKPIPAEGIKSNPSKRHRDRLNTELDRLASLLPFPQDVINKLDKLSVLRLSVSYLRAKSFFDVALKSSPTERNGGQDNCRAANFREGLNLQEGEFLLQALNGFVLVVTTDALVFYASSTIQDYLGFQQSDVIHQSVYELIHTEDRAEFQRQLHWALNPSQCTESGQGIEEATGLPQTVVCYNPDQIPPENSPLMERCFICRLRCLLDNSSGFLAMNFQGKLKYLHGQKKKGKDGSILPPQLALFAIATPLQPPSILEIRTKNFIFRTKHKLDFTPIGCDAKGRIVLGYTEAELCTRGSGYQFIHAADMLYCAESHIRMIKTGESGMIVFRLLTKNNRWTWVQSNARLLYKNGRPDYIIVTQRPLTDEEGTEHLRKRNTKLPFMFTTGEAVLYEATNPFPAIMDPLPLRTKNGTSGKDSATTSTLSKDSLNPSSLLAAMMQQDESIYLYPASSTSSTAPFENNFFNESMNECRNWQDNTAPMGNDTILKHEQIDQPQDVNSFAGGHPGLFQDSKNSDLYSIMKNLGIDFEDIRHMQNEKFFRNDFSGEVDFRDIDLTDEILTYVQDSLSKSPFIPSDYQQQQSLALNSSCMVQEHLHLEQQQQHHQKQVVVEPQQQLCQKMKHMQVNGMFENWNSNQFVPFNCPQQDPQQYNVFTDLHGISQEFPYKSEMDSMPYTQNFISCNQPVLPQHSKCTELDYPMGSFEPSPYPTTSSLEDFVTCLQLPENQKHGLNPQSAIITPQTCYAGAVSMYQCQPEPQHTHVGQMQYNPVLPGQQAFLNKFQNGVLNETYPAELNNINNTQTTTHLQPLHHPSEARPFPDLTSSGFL
Experimental Protocol: In vitro assay 1: antagonism in human cell line (transactivation assay, kynurenic acid prestimulated)
Experimental Context: Assay 1: AHR-luc Hum Antagonism IC50 [M], 150 μM kynurenic acid, 20 hours, firefly luciferase
IC50 values for the compounds below.
Answer with a number only, understood to be in M.

Study these solved cases before continuing.
Compound	Value Kind	Measured Value
CC(O)CCNC(=O)c1cc(-c2ccc(Cl)cc2)nn(-c2cccc(F)c2)c1=O (racemic) [Example 203]	IC50	2.13e-07
O=C(NCC(O)C(F)(F)F)c1cc(-c2ccc(OC(F)F)cc2)nn(-c2cccc(F)c2)c1=O (centres unmarked) [Example 120]	IC50	4.47e-08
O=C(NCC(O)C(F)(F)F)c1cc(-c2ccc(Cl)c(Cl)c2)nn(-c2cccc(F)c2)c1=O (centres unmarked) [Example 302]	IC50	2.29e-07
C[C@H](CO)CNC(=O)c1cc(-c2ccc(C(F)(F)F)cc2)nn(-c2cccc(F)c2)c1=O [Example 246]	IC50	2.78e-08
COCC(O)CNC(=O)c1cc(-c2ccc(Cl)c(Cl)c2)nn(-c2cccc(F)c2)c1=O (centres unmarked) [Example 303]	IC50	8.73e-07
CC(NC(=O)c1cc(-c2ccc(Cl)cc2)nn(-c2cccc(F)c2)c1=O)C(C)(C)O (centres unmarked) [Example 281]	IC50	2.2e-08

Now for another entry.
Fill in: IC50 of C[C@H](O)[C@H](C)NC(=O)c1cc(-c2ccc(Cl)c(Cl)c2)nn(-c2cccc(F)c2)c1=O (relative stereo) [Example 305] is ___
1.21e-07
